B1: RIPK4 (parent)
chain: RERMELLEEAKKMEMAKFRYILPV

Variants of: B1
PROCEDURE_DETAILS: protein stability index of a GFP-peptide fusion (GPS, HEK-293T) (PSI 1-6); higher = more stable;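 note: lentivirally expressed fusions sorted by FACS into six bins by GFP to DsRed ratio, PSI derived from sequencing read proportions per bin multiplied by bin number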
SETUP_CONDITIONS: c terminus: a fixed tail appended
Label criterion met when protein stability index is at or above 3; otherwise label criterion not met.

Challenge: Is it the case that M4C has protein stability index reaching or exceeding 3?
Response given: criterion met

Challenge: Is it the case that K11W has protein stability index reaching or exceeding 3?
Response given: criterion not met

Challenge: Is it the case that Y20Q has protein stability index reaching or exceeding 3?
Response given: criterion not met

Challenge: Is it the case that R3N has protein stability index reaching or exceeding 3?
Response given: criterion met

Challenge: Is it the case that E14T has protein stability index reaching or exceeding 3?
Response given: criterion not met

***
Challenge: Is it the case that E9M has protein stability index reaching or exceeding 3?
Response given: criterion not met

Challenge: Is it the case that E5M has protein stability index reaching or exceeding 3?
Response given: criterion met

Challenge: Is it the case that K17F has protein stability index reaching or exceeding 3?
Response given: criterion not met

Challenge: Is it the case that M13A has protein stability index reaching or exceeding 3?
Response given: criterion met

Challenge: Is it the case that P23Q has protein stability index reaching or exceeding 3?
Response given: criterion not met

Challenge: Is it the case that K17A has protein stability index reaching or exceeding 3?
Response given: criterion not met

Challenge: Is it the case that E8M has protein stability index reaching or exceeding 3?
Response given: criterion not met
